Biological target: HCV polymerase (NS5B570n-Con1) (Hepatitis C virus genotype 1b)
Construct: a 21 amino acid C-terminal deletion of full-length HCV polymerase; made in house; host or cells: E. coli BL21(DE3) pLysS, plasmid pET17b
Assay: biochemical
Set-up: species or system HCV Con1 strain
measure: log10 IC50 (log10 of the value in nM)
Use the decimal logarithm of IC50 (nM).

// worked examples, log10 IC50 included
molecule: CN(C)[C@H]1CCN(C(=O)c2coc3c(C(C)(C)C)cc(-c4ccc[nH]c4=O)cc23)C1
assay-result: 2.66
//
molecule: CC(C)(C)c1cc(-c2ncc[nH]c2=O)cc2c(C(=O)N3CCOC(CNS(C)(=O)=O)C3)coc12 (stereo not shown)
assay-result: 1.45
//
molecule: CC(NS(C)(=O)=O)c1ccc(-c2coc3c(C(C)(C)C)cc(-c4ccc[nH]c4=O)cc23)cc1 (stereo not shown)
assay-result: 0.90

Output measured log10 IC50 for this item: CC(C)(C)c1cc(-c2ccc[nH]c2=O)cc2c(-c3cnc(N)nc3)coc12
2.84

Answer with reported log10 IC50 of CC(C)(C)c1cc(-c2ccc[nH]c2=O)cc2c(C(=O)N3CCOC(CNS(C)(=O)=O)C3)csc12 (stereo not shown)
0.60

Quickly give me recorded log10 IC50 for CC(=O)NC[C@H]1CCN(C(=O)c2coc3c(C(C)(C)C)cc(-c4ccc[nH]c4=O)cc23)C1
2.29

Query log10 IC50 for COC(=O)C1COc2c1cc(-c1ccc[nH]c1=O)cc2C(C)(C)C (stereo not shown)
1.57

----------
Experiment: in vitro
Conditions: human
Parameter CC50: see the listing below.
Please state the figure in µM; there is no need to write the unit.

smiles-structure: CC(C)(C)c1cc(-c2ccc[nH]c2=O)cc2c(-c3ccc(N)cc3)coc12
CC50 / µM: 29.2

Please turn your attention to the following entry.
Check the records and state CC50 for CC(C)(C)c1cc(-c2ccc[nH]c2=O)cc2c(-c3cccc(C(N)=O)c3)coc12
12.4

----------
Reported melting point values for the following compounds.

Use these answered entries as a reference point.
compound: CC(C)(C)c1cc(-c2ccc[nH]c2=O)cc2c(-c3ccc(NS(C)(=O)=O)cc3)coc12 [Compound I-79]
melting point: 182 to 184 °C
--
compound: CC(C)(C)c1cc(-c2ccc[nH]c2=O)cc2c(C(=O)N3CCC(NS(C)(=O)=O)CC3)coc12 [Compound I-99]
melting point: 193 to 195 °C
--
compound: CC(C)(C)c1cc(-c2ccc[nH]c2=O)cc2c(C(=O)N3CCC[C@@H]3CNS(C)(=O)=O)csc12 [Compound 116]
melting point: 289 to 291 °C

--- query ---
Dear colleague, please send me the reported melting point for CN(C[C@H]1CCN(C(=O)c2coc3c(C(C)(C)C)cc(-c4ccc[nH]c4=O)cc23)C1)S(C)(=O)=O [Compound I-105] when you can.
155 to 157 °C

----------
This listing pairs compounds with measured melting point.

Answered examples (3):
smiles-structure: Cn1cc(C(N)=O)c2cc(-c3ccc[nH]c3=O)cc(C(C)(C)C)c21
melting point: 232 to 234 °C

smiles-structure: CC(C)(C)c1cc(-c2ccc[nH]c2=O)cc2c(C(=O)N3CCC[C@@H](N)C3)coc12
melting point: 254.9 to 258.1 °C

smiles-structure: CC(C)(C)c1cc(-c2ccc[nH]c2=O)cc2c(-c3cccc(CNS(C)(=O)=O)c3)coc12
melting point: 130 to 133 °C

Field: next compound
Quickly give me recorded melting point for CC(C)(C)c1cc(-c2ccc[nH]c2=O)cc2c(C(=O)c3cccc(O)c3)coc12
268 to 269 °C

----------
Target: HCV polymerase (NS5B570n-Con1) (Hepatitis C virus genotype 1b)
Construct: a 21 amino acid C-terminal deletion of full-length HCV polymerase
Assay: biochemical
measure: IC50 (nM)
Value expressed in nM; do not type the unit.

compound: CC(C)(C)c1cc(-c2ccc[nH]c2=O)cc2c(C(=O)Nc3nccs3)coc12
IC50 / nM: 357
//
compound: CC(C)(C)c1cc(-c2ccc[nH]c2=O)cc2c(CO)coc12
IC50 / nM: 515
//
compound: CC(C)(C)c1cc(-c2ccc[nH]c2=O)cc2c(-c3ccc(C#N)cc3)coc12
IC50 / nM: 72

Next compound, please.
Let me know recorded IC50 for CC(C)(C)c1cc(-c2ccc[nH]c2=O)cc2c(C(=O)N3CC[C@H](CNS(=O)(=O)C4CC4)C3)coc12 , thanks.
17

----------
Biological target: HCV polymerase (NS5B570n-Con1) (Hepatitis C virus genotype 1b, UniProt Q9WMX2)
Construct: a 21 amino acid C-terminal deletion of full-length HCV polymerase; made in house; host or cells: E. coli BL21(DE3) pLysS, plasmid pET17b
Experiment: biochemical
Design: species or system HCV Con1 strain
# reported IC50; entries follow
Write down the numeric answer in nM and omit the unit.

smiles-structure: CC(C)(C)c1cc(-c2ccc[nH]c2=O)cc2c(-c3cccc(C#N)c3)coc12
u: nM
IC50: 38
--
smiles-structure: CC(C)(C)OC(=O)N[C@@H]1CCCN(C(=O)c2coc3c(C(C)(C)C)cc(-c4ccc[nH]c4=O)cc23)C1
u: nM
IC50: 132
--
smiles-structure: CC(=O)N1CCN(C(=O)c2coc3c(C(C)(C)C)cc(-c4ccc[nH]c4=O)cc23)CC1
u: nM
IC50: 1250

Could you now consider this next compound?
# lookup: HCV polymerase (NS5B570n-Con1) (Hepatitis C virus genotype 1b, UniProt Q9WMX2) IC50, key = CC(C)S(=O)(=O)NC[C@H]1CCN(C(=O)c2coc3c(C(C)(C)C)cc(-c4ccc[nH]c4=O)cc23)C1
25

----------
Biological target: HCV polymerase (NS5B570n-Con1) (Hepatitis C virus genotype 1b)
Construct: a 21 amino acid C-terminal deletion of full-length HCV polymerase; made in house; host or cells: E. coli BL21(DE3) pLysS, plasmid pET17b
Assay: biochemical
Design: species or system HCV Con1 strain
measure: IC50 (nM)
Please state the figure in nM; there is no need to write the unit.

For orientation, consider the following solved cases.
molecule: CC(C)(C)c1cc(-c2ccc[nH]c2=O)cc2c(C(=O)N3CC[C@@H](CNS(C)(=O)=O)C3)coc12
u: nM
IC50: 21
//
molecule: CC(C)(C)c1cc(-c2ccc[nH]c2=O)cc2c(C(=O)N3CCCC(O)C3)coc12 (stereo not drawn)
u: nM
IC50: 186

Provide IC50 value for the following molecule: COc1cccc(-c2coc3c(C(C)(C)C)cc(-c4ccc[nH]c4=O)cc23)c1
14

Please report the measured IC50 for CC(C)(C)c1cc(-c2ccc[nH]c2=O)cc2c(-c3ccc(CN(CCO)S(C)(=O)=O)cc3)coc12
35

Determine from records and report IC50 for CC(C)(C)c1cc(-c2ccc[nH]c2=O)cc2c(-c3ccc(CNS(C)(=O)=O)nc3)coc12
12

Identify measured IC50 corresponding to CC(C)(C)c1cc(-c2ccc[nH]c2=O)cc2c(C(=O)N3CCCC(CNS(C)(=O)=O)C3)csc12 (stereo not drawn)
3

Specify measured IC50 for CC(C)(C)c1cc(-c2ccc[nH]c2=O)cc2c(C(=O)N3CCC(NC(=O)C(F)(F)F)CC3)coc12 .
2280

Read off the recorded IC50 for CC(C)(C)c1cc(-c2ccc[nH]c2=O)cc2c(C(=O)N3CCC(F)(F)CC3)coc12
597

Tell me its IC50 given CNC(=O)c1coc2c(C(C)(C)C)cc(-c3ccc[nH]c3=O)cc12 as the entry.
770

Name the recorded IC50 of the item CC(C)(C)c1cc(-c2ccc[nH]c2=O)cc2c(C(=O)N3CCCC(F)(CNS(C)(=O)=O)C3)coc12 (stereo not drawn) in your answer.
6

Please give the documented IC50 of CC(C)(C)c1cc(-c2ccc[nH]c2=O)cc2c(C(=O)Nc3cccc(CNS(C)(=O)=O)c3)coc12
741

Dear colleague, please send me the reported IC50 for CC(C)(C)c1cc(-c2ccc[nH]c2=O)cc2c(C(=O)N3CCC(CO)C3)coc12 (stereo not drawn) when you can.
53

Kindly indicate its recorded IC50. Item: CC(C)(C)c1cc(-c2ccc[nH]c2=O)cc2c(C(=O)N3CCCC(CN)C3)coc12 (stereo not drawn)
51

Note down IC50 recorded for CC(C)(C)c1cc(-c2ccc[nH]c2=O)cc2c(C(=O)N3CCCCC3)coc12
48

For the molecule CC(C)(C)c1cc(-c2ccc[nH]c2=O)cc2c(C(=O)N3CCC[C@@H](CNS(C)(=O)=O)C3)coc12 , report IC50.
9

Report IC50, nothing else, for this molecule: CC(C)(C)c1cc(-c2ccc[nH]c2=O)cc2c(-c3cccc(CNS(C)(=O)=O)c3)coc12
175

Given CC(C)(C)c1cc(-c2ccc[nH]c2=O)cc2c(C(=O)N3CCC[C@H](CNS(C)(=O)=O)C3)coc12 , respond with its IC50.
8

Indicate its recorded IC50; the molecule in question is Cc1ccc(-c2coc3c(C(C)(C)C)cc(-c4ccc[nH]c4=O)cc23)nc1
326

State its IC50: Cc1ccc(-c2cc(C(C)(C)C)c3occ(C(=O)N4CC[C@H](CNS(C)(=O)=O)C4)c3c2)c(=O)[nH]1
16

Identify measured IC50 corresponding to CC(C)(C)c1cc(-c2ccc[nH]c2=O)cc2c(C(=O)N3CCC(C(N)=O)CC3)coc12
282
